Data origin, for the record: patent US20180237497A1

biological target: T1, human IGF2^1-67 (mature insulin-like growth factor 2) (human, UniProt P01344 25-91, biotinylated (site not stated) where immobilised on the chip (Tables 1-4)); assay: SPR kinetic, biotin-IGF2 on chip, pH 7.4
T1 construct: mature; also called mature IGF2; biotinylated IGF2
T1 sequence (P01344 25-91): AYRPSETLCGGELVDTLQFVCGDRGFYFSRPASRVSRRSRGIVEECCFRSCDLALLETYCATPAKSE
pKd: −log10 of the molar value.
Please respond with reported pKd for every item in the list.

Solved entries:
domain 11^AB5 P1599A (receptor, See m5; the asterisk is not explained) MKSNEHDDCQVTNPSTGHLFDLSSLSGRAGFTAAYAKGWGVYMSICGENENCPPGVGACFGQTRISVGKANKRLRYVDQVLQLVYKDGSPCASKSGLSYKSVISFVCRPEAGPTNRPMLISLDKQTCTLFFSWHTPLACEQATECSV	< 7.15
domain 11^AB5 P1599V (receptor, See m5; the asterisk is not explained) MKSNEHDDCQVTNPSTGHLFDLSSLSGRAGFTAAYAKGWGVYMSICGENENCPPGVGACFGQTRISVGKANKRLRYVDQVLQLVYKDGSPCVSKSGLSYKSVISFVCRPEAGPTNRPMLISLDKQTCTLFFSWHTPLACEQATECSV	< 7.00

Name the recorded pKd for domain 11^AB5 S1600L (receptor, See m5) MKSNEHDDCQVTNPSTGHLFDLSSLSGRAGFTAAYAKGWGVYMSICGENENCPPGVGACFGQTRISVGKANKRLRYVDQVLQLVYKDGSPCPLKSGLSYKSVISFVCRPEAGPTNRPMLISLDKQTCTLFFSWHTPLACEQATECSV .
< 6.70
